AChE (Electrophorus electricus, UniProt O42275) IC50 data
Sequence (O42275 24-633): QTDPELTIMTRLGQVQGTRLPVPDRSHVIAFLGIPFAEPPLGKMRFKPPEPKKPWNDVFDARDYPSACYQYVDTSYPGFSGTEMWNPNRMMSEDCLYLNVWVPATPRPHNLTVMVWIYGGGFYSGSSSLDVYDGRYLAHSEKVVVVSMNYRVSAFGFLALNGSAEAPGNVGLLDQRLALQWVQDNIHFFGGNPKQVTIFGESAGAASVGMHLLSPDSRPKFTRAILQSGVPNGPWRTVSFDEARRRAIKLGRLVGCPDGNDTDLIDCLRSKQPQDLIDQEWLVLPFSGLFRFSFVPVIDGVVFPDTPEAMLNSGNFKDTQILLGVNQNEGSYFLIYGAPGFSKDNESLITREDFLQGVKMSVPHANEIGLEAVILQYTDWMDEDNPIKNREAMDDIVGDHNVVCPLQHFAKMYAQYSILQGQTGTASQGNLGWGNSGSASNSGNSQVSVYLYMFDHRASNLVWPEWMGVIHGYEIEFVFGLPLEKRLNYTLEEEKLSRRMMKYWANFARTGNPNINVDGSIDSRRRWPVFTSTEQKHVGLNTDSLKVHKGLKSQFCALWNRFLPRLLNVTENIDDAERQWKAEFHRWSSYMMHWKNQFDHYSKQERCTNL
metric-name: IC50 (µM)

- Cl.NCCCCNCCCCNC(=O)COc1cc(O)c2c(=O)c(-c3ccc(O)cc3)coc2c1: 46.6
- CN(C)CCNC(=O)COc1cc(O)c2c(=O)c(-c3ccc(O)cc3)coc2c1.Cl: 2.75
